- assay_system: WT/R232 STING protein (Homo sapiens, UniProt Q86WV6, H232R)
- Sequence (Q86WV6 whole entry H232R): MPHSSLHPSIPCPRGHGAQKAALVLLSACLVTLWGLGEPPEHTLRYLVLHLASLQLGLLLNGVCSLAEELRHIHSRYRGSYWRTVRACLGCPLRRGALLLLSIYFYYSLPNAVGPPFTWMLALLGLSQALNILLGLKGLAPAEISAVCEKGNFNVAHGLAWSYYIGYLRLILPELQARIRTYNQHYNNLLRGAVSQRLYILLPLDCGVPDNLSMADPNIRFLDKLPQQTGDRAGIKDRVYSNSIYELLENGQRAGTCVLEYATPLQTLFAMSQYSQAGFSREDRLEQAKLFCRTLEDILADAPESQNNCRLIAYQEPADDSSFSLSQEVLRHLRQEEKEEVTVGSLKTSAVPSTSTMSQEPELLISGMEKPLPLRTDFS
- assay_text: Luciferase reporter assay in HEK293T-hSTING-Luciferase cells, WT/R232
- test_context: 20 hr stimulation, read-out: R232 Activity (EC50 range)
Recorded measurements of EC50, one per entry

Worked examples, 5 compounds total:
O=C(NCc1ccco1)c1ccc2c(c1)N(Cc1ccccc1C(F)(F)F)C(=O)CS2 [Example 30]: > 10 µM
CC1Sc2ccc(C(=O)NCc3cnn(C)c3)cc2N(Cc2cc(F)cc(F)c2)C1=O (stereo not drawn) [Example 169]: > 10 µM
O=C(NCc1coc2ccccc12)c1ccc2c(c1)N(Cc1ccccc1)C(=O)CS2 [Example 70]: > 10 µM
CC(C)(NC(=O)c1ccc2c(c1)N(Cc1ccccc1)C(=O)CS2)c1ccccc1F [Example 78]: > 10 µM
O=C(NCCc1ccccc1)c1ccc2c(c1)N(Cc1c(F)cccc1Cl)C(=O)CS2 [Example 129]: > 10 µM

Query: What value of measured EC50 is listed for Cc1cc(CN2C(=O)C(C)Sc3ccc(C(=O)NCc4c(F)cc(F)cc4F)cc32)no1 (stereo not drawn) [Example 159] ?
Reply: < 1 µM

Query: What value of measured EC50 is listed for O=C(NCc1ccco1)c1cc(C2CC2)c2c(c1)N(Cc1ccccc1F)C(=O)CS2 [Example 227] ?
Reply: > 10 µM

====

- assay_system: hSTING(HAQ) (Homo sapiens, UniProt Q86WV6, G230A/H232R/R293Q/R71H)
- Sequence (Q86WV6 whole entry R71H/G230A/H232R/R293Q): as the sequence (Q86WV6 whole entry H232R) above, with R71H, G230A, R293Q counted along it
- assay_text: Luciferase reporter assay in HEK293T-hSTING-Luciferase cells, HAQ polymorph
- test_context: 20 hr stimulation, read-out: HAQ activity (EC50 range)
pEC50: −log10 of the molar value.
Recorded measurements of pEC50, one per entry

Worked examples, 3 molecules total:
CC1Sc2ccc(C(=O)NCc3c(F)cc(F)cc3F)cc2N(Cc2cc(F)cc(F)c2)C1=O (stereo not shown) [Example 153]: 5.00 to 6.00
C[C@H]1Oc2ccc(C(=O)NCc3c(F)cc(F)cc3F)cc2N(Cc2cc(F)cc(F)c2)C1=O [Example 242]: 5.00 to 6.00
CC1Sc2ccc(C(=O)NCc3ccccc3)nc2N(Cc2cc(F)cc(F)c2)C1=O (stereo not shown): 5.00 to 6.00

Query: What value of measured pEC50 is listed for CC1Sc2ccc(C(=O)NCc3cc4ccccc4o3)cc2N(Cc2cc(F)cc(F)c2)C1=O (stereo not shown) ?
Reply: > 6.00

Query: What value of measured pEC50 is listed for O=C(NCc1c(F)cc(F)cc1F)c1cnc2c(c1)N(Cc1cc(F)cc(F)c1)C(=O)CS2 ?
Reply: 5.00 to 6.00

Query: What value of measured pEC50 is listed for O=C(NCc1ccco1)c1ccc2c(n1)N(Cc1c(F)cccc1Cl)C(=O)CS2 ?
Reply: < 5.00

====

Recorded measurements of pEC50, one per entry
- assay_system: WT/R232 STING protein (Homo sapiens, UniProt Q86WV6, H232R)
- assay_text: Luciferase reporter assay in HEK293T-hSTING-Luciferase cells, WT/R232
- test_context: 20 hr stimulation, read-out: R232 Activity (EC50 range)
pEC50: −log10 of the molar value.

Query: What value of measured pEC50 is listed for O=C(NCc1ccco1)c1ccc2c(c1)N(CCc1ccccc1Cl)C(=O)CS2 ?
Reply: < 5.00

Query: What value of measured pEC50 is listed for N#Cc1ccccc1CN1C(=O)CSc2ccc(C(=O)NCc3ccco3)cc21 ?
Reply: < 5.00

Query: What value of measured pEC50 is listed for O=C(NCc1ccco1)c1cnc2c(c1)N(Cc1c(F)cccc1Cl)C(=O)CS2 ?
Reply: < 5.00

Query: What value of measured pEC50 is listed for NC(=O)c1cccc(CN2C(=O)CSc3ccc(C(=O)NCc4ccco4)cc32)c1 ?
Reply: < 5.00

Query: What value of measured pEC50 is listed for CC1Sc2ccc(C(=O)NCc3c(F)cc(F)cc3F)nc2N(Cc2c(F)cccc2Cl)C1=O (centres unmarked) ?
Reply: 5.00 to 6.00

Query: What value of measured pEC50 is listed for CC1(C)C2CC(CNC(=O)c3ccc4c(c3)N(Cc3ccccc3F)C(=O)CS4)CC1C2 (centres unmarked) ?
Reply: < 5.00

Query: What value of measured pEC50 is listed for O=C(NCc1ccco1)c1cnc2c(c1)N(Cc1ccccc1)C(=O)CS2 ?
Reply: < 5.00

Query: What value of measured pEC50 is listed for O=C(NCc1c(F)cccc1Cl)c1ccc2c(c1)N(Cc1c(F)cccc1Cl)C(=O)CS2 ?
Reply: 5.00 to 6.00

====

Recorded measurements of EC50, one per entry
- assay_system: hSTING(HAQ) (Homo sapiens, UniProt Q86WV6, G230A/H232R/R293Q/R71H)
- Construct: host or cells: HEK293T
- assay_text: Luciferase reporter assay in HEK293T-hSTING-Luciferase cells, HAQ polymorph
- Format: cell-based
- test_context: 20 hr stimulation, read-out: HAQ activity (EC50 range)

Worked examples, 2 compounds total:
CC1(C)Sc2ccc(C(=O)NCc3cc4ccccc4o3)cc2N(Cc2c(F)cccc2Cl)C1=O: < 1 µM
O=C(NCc1ccco1)c1ccc2c(c1)N(Cc1cccc(F)c1F)C(=O)CS2: 1 to 10 µM

Query: What value of measured EC50 is listed for Cc1ccc(CNC(=O)c2cnc3c(c2)N(Cc2c(F)cccc2Cl)C(=O)C(C)S3)o1 (centres unmarked) ?
Reply: 1 to 10 µM

Query: What value of measured EC50 is listed for CC1Sc2ccc(C(=O)NCc3ccc(F)cc3F)nc2N(Cc2c(F)cccc2Cl)C1=O (centres unmarked) ?
Reply: > 10 µM

Query: What value of measured EC50 is listed for CC1Sc2ncc(C(=O)NCc3cc4ccccc4o3)cc2N(Cc2cc(F)cc(F)c2)C1=O (centres unmarked) [Example 194] ?
Reply: < 1 µM

Query: What value of measured EC50 is listed for CC1Oc2ccc(C(=O)NCc3c(F)cc(F)cc3F)cc2N(Cc2cc(F)cc(F)c2)C1=O (centres unmarked) ?
Reply: 1 to 10 µM

Query: What value of measured EC50 is listed for Cc1cc(CN2C(=O)C(C)Sc3ccc(C(=O)NCc4c(F)cc(F)cc4F)cc32)no1 (centres unmarked) ?
Reply: 1 to 10 µM

Query: What value of measured EC50 is listed for Cc1ccc(CNC(=O)c2ccc3c(n2)N(Cc2cc(F)cc(F)c2)C(=O)C(C)S3)o1 (centres unmarked) [Example 203] ?
Reply: 1 to 10 µM

Query: What value of measured EC50 is listed for O=C(NCc1c(F)cc(F)cc1F)c1ccc2c(c1)N(Cc1c(F)cccc1Cl)C(=O)CS2 ?
Reply: < 1 µM

Query: What value of measured EC50 is listed for CC1Sc2ccc(C(=O)NCc3ccco3)cc2N(Cc2cc(F)cc(F)c2)C1=O (centres unmarked) ?
Reply: 1 to 10 µM

Query: What value of measured EC50 is listed for CCCC1Sc2ccc(C(=O)NCc3c(F)cc(F)cc3F)cc2N(Cc2c(F)cccc2Cl)C1=O (centres unmarked) ?
Reply: 1 to 10 µM

Query: What value of measured EC50 is listed for CC1Cc2ccc(C(=O)NCc3c(F)cc(F)cc3F)cc2N(Cc2c(F)cccc2Cl)C1=O (centres unmarked) ?
Reply: < 1 µM

Query: What value of measured EC50 is listed for O=C(NCc1cc2ccccc2o1)c1ccc2c(n1)N(Cc1cc(F)cc(F)c1)C(=O)CC2 ?
Reply: 1 to 10 µM

Query: What value of measured EC50 is listed for O=C(NCc1c(F)cc(F)cc1F)c1ccc2c(c1)N(Cc1ccncc1)C(=O)CS2 ?
Reply: 1 to 10 µM

====

- assay_system: hSTING(H232) (Homo sapiens)
- Sequence (Q86WV6 whole entry): as the sequence (Q86WV6 whole entry H232R) above, with R232H counted along it
- assay_text: Luciferase reporter assay in HEK293T-hSTING-Luciferase cells, H232 polymorph
- test_context: 20 hr stimulation, read-out: H232 activity (EC50 range)
Recorded measurements of EC50, one per entry

Worked examples, 6 molecules total:
CC1Sc2ncc(C(=O)NCc3cc4ccccc4o3)cc2N(Cc2cc(F)cc(F)c2)C1=O (stereo not shown) [Example 194]: < 1 µM
CC1(C)Sc2ccc(C(=O)NCC3CCCCC3)cc2N(Cc2ccccc2F)C1=O: > 10 µM
CC1(C)Sc2ccc(C(=O)NCc3c(F)cc(F)cc3F)cc2N(Cc2ccccc2F)C1=O: 1 to 10 µM
O=C(NCc1c(F)cccc1F)c1ccc2c(c1)N(Cc1c(F)cccc1Cl)C(=O)CS2: < 1 µM
Cc1cc(CN2C(=O)C(C)Sc3ccc(C(=O)NCc4c(F)cc(F)cc4F)cc32)on1 (stereo not shown): 1 to 10 µM
O=C(NCc1ccc(F)cc1)c1ccc2c(c1)N(Cc1c(F)cccc1Cl)C(=O)CS2: 1 to 10 µM

Query: Form entry - test system: hSTING(H232) (Homo sapiens); read-out: EC50; molecule: CC1Sc2ccc(C(=O)NCc3c(F)cc(F)cc3F)cc2N(Cc2cc(F)cc(F)c2)C1=O (stereo not shown) [Example 153]
Reply: 1 to 10 µM

Query: Form entry - test system: hSTING(H232) (Homo sapiens); read-out: EC50; molecule: Cc1cccc(CNC(=O)c2ccc3c(c2)N(Cc2c(F)cccc2Cl)C(=O)CS3)c1
Reply: 1 to 10 µM

Query: Form entry - test system: hSTING(H232) (Homo sapiens); read-out: EC50; molecule: CC1Sc2ccc(C(=O)NCc3c(F)cc(F)cc3F)cc2N(Cc2cccc(C(N)=O)c2)C1=O (stereo not shown)
Reply: > 10 µM

Query: Form entry - test system: hSTING(H232) (Homo sapiens); read-out: EC50; molecule: Cc1cc(CN2C(=O)C(C)Sc3ccc(C(=O)NCc4c(F)cc(F)cc4F)cc32)no1 (stereo not shown)
Reply: 1 to 10 µM

Ref: patent US20200138827A1
